meta.source: ChEMBL document CHEMBL3885881

Species on record: Rattus norvegicus
Test: DrugMatrix - Regimen: Daily Repeat
Assay type: toxicity, organism-based, Sprague-Dawley
Set-up: regimen Daily Repeat, gender Male, age 6-8 weeks
Details: in vivo, po, 50 mg/kg, 72 h, tissue Plasma, route oral GAVAGE, dose level Low, time 3 day, vehicle .5 % CMC
Reported Endpoint: SODIUM (MEQ/L)
// units = MEQ/L; emit number, no label

Solved cases (3 shown):
NC1CCN(c2nc3c(cc2F)c(=O)c(C(=O)O)cn3-c2ccc(F)cc2F)C1 (centres undefined) [TOSUFLOXACIN]; 151.33
Cc1cccc(C)c1OCC(C)N (centres undefined) [MEXILETINE]; 144.43
CCN1CCC[C@H]1CNC(=O)c1cc(S(N)(=O)=O)ccc1OC [LEVOSULPIRIDE]; 150.33

Let us move to another entry and its SODIUM.
Problem: What value of SODIUM has been recorded for this entry: CN(C)[C@@H]1C(O)=C(C(N)=O)C(=O)[C@@]2(O)C(O)=C3C(=O)c4c(O)ccc(Cl)c4[C@@](C)(O)[C@H]3C[C@@H]12 [CHLORTETRACYCLINE]
Solution: 146.1

====

Organism: Rattus norvegicus
Assay: DrugMatrix - Regimen: Daily Repeat
Format: toxicity, organism-based, Sprague-Dawley
Parameters: regimen Daily Repeat, gender Male, age 6-8 weeks
Details: in vivo, po, 2000 mg/kg, 120 h, tissue Plasma, route oral GAVAGE, dose level High, time 5 day, vehicle .5 % CMC
Hi! Just check whether ALKALINE PHOSPHATASE is below 300 u/L. Below gives Satisfied, equal or above gives Not satisfied.

Use these answered entries as a reference point.
CC1(C)S[C@@H]2[C@H](NC(=O)[C@H](N)c3ccccc3)C(=O)N2[C@H]1C(=O)O; Not satisfied
CN/C(=N/CCSCc1nc[nH]c1C)NC#N; Not satisfied
COc1cc2nc(N3CCN(C(=O)c4ccco4)CC3)nc(N)c2cc1OC; Satisfied

Problem: Please determine if NC1CCN(c2nc3c(cc2F)c(=O)c(C(=O)O)cn3-c2ccc(F)cc2F)C1 (stereo unspecified) is below 300 u/L in terms of ALKALINE PHOSPHATASE.
Solution: Satisfied

Problem: Please determine if CN(C/C=C/C#CC(C)(C)C)Cc1cccc2ccccc12 is below 300 u/L in terms of ALKALINE PHOSPHATASE.
Solution: Not satisfied

Problem: Please determine if O=C1Nc2ccc(Cl)cc2C(c2ccccc2Cl)=NC1O (stereo unspecified) is below 300 u/L in terms of ALKALINE PHOSPHATASE.
Solution: Satisfied

====

Species on record: Rattus norvegicus
Assay: DrugMatrix - Regimen: Daily Repeat
Format: toxicity, organism-based, Sprague-Dawley
Set-up: regimen Daily Repeat, gender Male, age 6-8 weeks
Details: in vivo, po, 0 mg/kg, 120 h, tissue Plasma, route oral GAVAGE, dose level Control, time 5 day, […]
Reported Endpoint: CHLORIDE (MEQ/L)
// units = MEQ/L; emit number, no label

Solved cases (3 shown):
COc1cc(N)c(Cl)cc1C(=O)NC1CCN(CCCOc2ccc(F)cc2)CC1OC (centres undefined) [CISAPRIDE]; 98.67
CC(C)(C)NC(=O)[C@H]1CC[C@H]2[C@@H]3CC[C@H]4NC(=O)C=C[C@]4(C)[C@H]3CC[C@]12C [FINASTERIDE]; 103
Clc1ccc(COC(Cn2ccnc2)c2ccc(Cl)cc2Cl)cc1 (centres undefined) [ECONAZOLE]; 103.67

Let us move to another entry and its CHLORIDE.
Problem: What value of CHLORIDE has been recorded for this entry: CO[C@H]1/C=C/O[C@@]2(C)Oc3c(C)c(O)c4c(O)c(c(/C=N/N5CCN(C6CCCC6)CC5)c(O)c4c3C2=O)NC(=O)/C(C)=C\C=C\[C@H](C)[C@H](O)[C@@H](C)[C@@H](O)[C@@H](C)[C@H](OC(C)=O)[C@@H]1C [RIFAPENTINE]
Solution: 102.33

====

Species: Rattus norvegicus
Experiment: DrugMatrix - Regimen: Daily Repeat
Assay type: toxicity, organism-based, Sprague-Dawley
Parameters: regimen Daily Repeat, gender Male, age 6-8 weeks
Details: in vivo, po, 50 mg/kg, 120 h, tissue Blood, route oral GAVAGE, dose level Low, time 5 day, vehicle .5 % CMC
Reported Endpoint: BASOPHIL (%)
// units = %; emit number, no label

Solved cases (3 shown):
Cc1cccc(C)c1OCC(C)N (centres undefined); 0
CCN1CCC[C@H]1CNC(=O)c1cc(S(N)(=O)=O)ccc1OC [LEVOSULPIRIDE]; 0
NC1CCN(c2nc3c(cc2F)c(=O)c(C(=O)O)cn3-c2ccc(F)cc2F)C1 (centres undefined); 0

Let us move to another entry and its BASOPHIL.
Problem: What value of BASOPHIL has been recorded for this entry: CN(C)[C@@H]1C(O)=C(C(N)=O)C(=O)[C@@]2(O)C(O)=C3C(=O)c4c(O)ccc(Cl)c4[C@@](C)(O)[C@H]3C[C@@H]12
Solution: 0

====

Species: Rattus norvegicus
Test: DrugMatrix - Regimen: Daily Repeat
Type: toxicity, organism-based, Sprague-Dawley
Design: regimen Daily Repeat, gender Male, age 6-8 weeks
Conditions: in vivo, po, 1500 mg/kg, 120 h, tissue Plasma, route oral GAVAGE, dose level High, time 5 day, vehicle .5 % CMC
Reported Endpoint: TOTAL BILIRUBIN (mg/dL)
// units = mg/dL; emit number, no label

Solved cases (3 shown):
CC(C)Oc1ccc2c(=O)c(-c3ccccc3)coc2c1; 0.2
O=c1cnn([C@@H]2O[C@H](CO)[C@@H](O)[C@H]2O)c(=O)[nH]1; 0.2
COC(=O)Nc1nc2ccc([S+]([O-])c3ccccc3)cc2[nH]1 (stereo not given); 0.13

Problem: What value of TOTAL BILIRUBIN has been recorded for this entry: CC(C)=CCC/C(C)=C/CO
Solution: 0.1

Problem: What value of TOTAL BILIRUBIN has been recorded for this entry: CN(C)[C@@H]1C(O)=C(C(N)=O)C(=O)[C@@]2(O)C(O)=C3C(=O)c4c(O)ccc(Cl)c4[C@@](C)(O)[C@H]3C[C@@H]12
Solution: 0.17

====

Species on record: Rattus norvegicus
Test: DrugMatrix - Regimen: Daily Repeat
Type: toxicity, organism-based, Sprague-Dawley
Set-up: regimen Daily Repeat, gender Male, age 6-8 weeks
Details: in vivo, po, 2000 mg/kg, 120 h, tissue Blood, route oral GAVAGE, dose level High, time 5 day, vehicle .5 % CMC
Listed here are compounds together with their documented ABSOLUTE LYMPHOCYTE.
// units = CELLS/uL; emit number, no label

Solved cases (3 shown):
CN/C(=N/CCSCc1nc[nH]c1C)NC#N [CIMETIDINE]; 19446
O=C1Nc2ccc(Cl)cc2C(c2ccccc2Cl)=NC1O (centres undefined) [LORAZEPAM]; 9298.5
COc1cc2nc(N3CCN(C(=O)c4ccco4)CC3)nc(N)c2cc1OC [PRAZOSIN]; 9169.67

Problem: What value of ABSOLUTE LYMPHOCYTE has been recorded for this entry: CC1(C)S[C@@H]2[C@H](NC(=O)[C@H](N)c3ccccc3)C(=O)N2[C@H]1C(=O)O [AMPICILLIN]
Solution: 13556.33

====

Species: Rattus norvegicus
Experiment: DrugMatrix - Regimen: Daily Repeat
Assay type: toxicity, organism-based, Sprague-Dawley
Parameters: regimen Daily Repeat, gender Male, age 6-8 weeks
Conditions: in vivo, po, 0 mg/kg, 72 h, tissue Blood, route oral GAVAGE, dose level Control, time 3 day, vehicle .5 % CMC
Listed here are compounds together with their documented ABSOLUTE LYMPHOCYTE.
// units = CELLS/uL; emit number, no label

Solved cases (3 shown):
CN/C(=N/CCSCc1nc[nH]c1C)NC#N [CIMETIDINE]; 12191.17
O=C1C(CC[S+]([O-])c2ccccc2)C(=O)N(c2ccccc2)N1c1ccccc1 (stereo not given) [SULFINPYRAZONE]; 13776.5
O=C1CN=C(c2ccccc2Cl)c2cc([N+](=O)[O-])ccc2N1 [CLONAZEPAM]; 12191.17

Problem: What value of ABSOLUTE LYMPHOCYTE has been recorded for this entry: CN(C)[C@@H]1C(O)=C(C(N)=O)C(=O)[C@@]2(O)C(O)=C3C(=O)c4c(O)ccc(Cl)c4[C@@](C)(O)[C@H]3C[C@@H]12 [CHLORTETRACYCLINE]
Solution: 13494.17

Problem: What value of ABSOLUTE LYMPHOCYTE has been recorded for this entry: CCN(CC)CCOc1ccc(/C(=C(/Cl)c2ccccc2)c2ccccc2)cc1 [ENCLOMIPHENE]
Solution: 14453

Problem: What value of ABSOLUTE LYMPHOCYTE has been recorded for this entry: O=C1Nc2ccc(Cl)cc2C(c2ccccc2Cl)=NC1O (stereo not given) [LORAZEPAM]
Solution: 13776.5

Problem: What value of ABSOLUTE LYMPHOCYTE has been recorded for this entry: C[C@H]1O[C@@H](n2cc(F)c(=O)[nH]c2=O)[C@H](O)[C@@H]1O [DOXIFLURIDINE]
Solution: 12191.17

Problem: What value of ABSOLUTE LYMPHOCYTE has been recorded for this entry: Cn1c(=O)c2c(ncn2CC(O)CO)n(C)c1=O (stereo not given) [DYPHYLLINE]
Solution: 13494.17

Problem: What value of ABSOLUTE LYMPHOCYTE has been recorded for this entry: COC1=C(OC)C(=O)C(CCCCCCCCCCO)=C(C)C1=O [IDEBENONE]
Solution: 12191.17

Problem: What value of ABSOLUTE LYMPHOCYTE has been recorded for this entry: COc1cc2nc(N3CCN(C(=O)c4ccco4)CC3)nc(N)c2cc1OC [PRAZOSIN]
Solution: 13776.5
